# Target desc: Alpha-2C adrenergic receptor (Homo sapiens, UniProt P18825)
# Sequence (P18825 whole entry): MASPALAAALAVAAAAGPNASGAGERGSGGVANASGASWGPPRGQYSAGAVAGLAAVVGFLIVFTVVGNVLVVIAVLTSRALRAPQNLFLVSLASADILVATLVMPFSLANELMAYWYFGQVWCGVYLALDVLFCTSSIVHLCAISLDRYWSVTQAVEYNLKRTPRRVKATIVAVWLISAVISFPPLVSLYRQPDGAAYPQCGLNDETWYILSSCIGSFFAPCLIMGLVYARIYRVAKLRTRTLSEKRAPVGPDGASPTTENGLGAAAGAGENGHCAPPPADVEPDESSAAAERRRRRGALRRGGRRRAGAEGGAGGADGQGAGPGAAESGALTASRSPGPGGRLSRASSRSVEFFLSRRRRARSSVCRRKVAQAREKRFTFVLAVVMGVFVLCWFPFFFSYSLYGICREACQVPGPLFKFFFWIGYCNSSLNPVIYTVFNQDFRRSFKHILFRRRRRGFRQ
# Assay summary: Binding affinity for alpha-2C adrenergic receptor
pKi: −log10 of the molar value.
Observation type: pKi

[A] COc1cc2c(cc1OC)N(C)C[C@@H]1C2=NO[C@H]1CN1CCN(CCCC(C)=Cc2ccccc2)CC1
[B] c1ccc2c(c1)NC[C@@H]1C2=NO[C@H]1CN1CCN(Cc2ccc3ccccc3c2)CC1
Prompt line: Which item exceeds the other in pKi, A or B ? Provide the label of your selected option as the answer.
Response line: A

----------
# Target desc: Sodium-dependent serotonin transporter (Homo sapiens, UniProt P31645)
# Sequence (P31645 whole entry): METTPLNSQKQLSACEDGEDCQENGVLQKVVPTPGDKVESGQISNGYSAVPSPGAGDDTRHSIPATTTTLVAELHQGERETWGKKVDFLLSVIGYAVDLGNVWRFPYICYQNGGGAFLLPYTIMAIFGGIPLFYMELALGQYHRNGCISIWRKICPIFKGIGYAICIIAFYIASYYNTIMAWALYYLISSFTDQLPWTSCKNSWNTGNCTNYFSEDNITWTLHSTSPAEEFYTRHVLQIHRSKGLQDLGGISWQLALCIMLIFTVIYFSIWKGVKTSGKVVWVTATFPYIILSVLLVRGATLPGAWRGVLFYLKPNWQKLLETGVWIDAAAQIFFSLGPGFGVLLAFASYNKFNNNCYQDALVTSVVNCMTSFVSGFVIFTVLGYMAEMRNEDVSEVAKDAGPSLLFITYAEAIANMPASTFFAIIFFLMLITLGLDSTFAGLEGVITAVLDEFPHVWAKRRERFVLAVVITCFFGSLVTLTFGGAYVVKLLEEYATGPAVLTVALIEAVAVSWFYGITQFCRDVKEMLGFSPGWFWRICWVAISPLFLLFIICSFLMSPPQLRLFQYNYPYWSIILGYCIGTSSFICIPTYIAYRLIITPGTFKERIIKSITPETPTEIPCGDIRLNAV
# Assay summary: Binding affinity for serotonin transporter
Observation type: Ki (nM)

Past entries and their recorded results:
smiles_notation=CN1C[C@@H]2C(=NO[C@H]2CN2CCN(C/C=C/c3ccccc3)CC2)c2ccccc21 observation_type=Ki result=16
smiles_notation=C/C(=C\c1ccccc1)CN1CCN(C[C@@H]2ON=C3c4ccc(OC(=O)C(C)(C)C)cc4OC[C@H]32)CC1 observation_type=Ki result=12
smiles_notation=C/C(=C\c1ccccc1)CN1CCN(C[C@@H]2ON=C3c4ccc(OC(=O)c5ccncc5)cc4OC[C@H]32)CC1 observation_type=Ki result=13

[1] COc1cc2c(cc1OC)C1=NO[C@@H](CN3CCN(C/C=C(\C)c4ccccc4)CC3)[C@@H]1CN2
[2] COc1cc2c(cc1OC)C1=NO[C@@H](CN3CCN(C/C=C/c4ccccc4)CC3)[C@@H]1CN2
Prompt line: Compare Ki: is it lower for 1 or for 2 ? Which one? Tell me its label.
Response line: 2
